Here the recorded PBM binding z-score is given for each entry.
# Test system: PPARg DBDmut IVT, anti-PPARg (DBD mutation: PPARg1 K132A/R137A, NR concentration 270 nM)
# ASSAY NAME: PBM binding z-score (relative to random genomic background probes); higher = stronger binding; sequences stand for … in GC…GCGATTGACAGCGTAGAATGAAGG
Lab note: write the figure by itself, no unit.

Consider the worked cases shown below.
RESIDUE SEQUENCE | ASSAY RESULT
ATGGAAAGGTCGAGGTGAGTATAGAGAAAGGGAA | 0.527
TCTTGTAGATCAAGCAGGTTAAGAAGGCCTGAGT | 0.0402
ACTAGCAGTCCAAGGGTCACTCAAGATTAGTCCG | -0.0845

Now let's try a different one.
Ask: What value of measured PBM binding z-score is listed for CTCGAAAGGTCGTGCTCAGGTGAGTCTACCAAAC ?
Reply: -0.101

* * *

# Tested on: PXR:RXRa (NR concentration 270 nM, RXRa partner concentration 90 nM)
# ASSAY NAME: PBM binding z-score (relative to random genomic background probes); higher = stronger binding; sequences stand for … in GC…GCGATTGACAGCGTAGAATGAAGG
Here the recorded PBM binding z-score is given for each entry.
Lab note: write the figure by itself, no unit.

Consider the worked cases shown below.
RESIDUE SEQUENCE | PBM binding z-score
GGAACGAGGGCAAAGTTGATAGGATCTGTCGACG | 1.31
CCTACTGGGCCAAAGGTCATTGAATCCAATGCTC | 5.26

Ask: What value of measured PBM binding z-score is listed for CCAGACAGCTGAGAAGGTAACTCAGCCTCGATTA ?
Reply: -0.733

Ask: What value of measured PBM binding z-score is listed for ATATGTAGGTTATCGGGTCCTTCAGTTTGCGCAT ?
Reply: 0.963

Ask: What value of measured PBM binding z-score is listed for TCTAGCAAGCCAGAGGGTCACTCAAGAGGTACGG ?
Reply: 0.871

Ask: What value of measured PBM binding z-score is listed for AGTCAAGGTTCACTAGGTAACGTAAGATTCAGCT ?
Reply: 1.83

Ask: What value of measured PBM binding z-score is listed for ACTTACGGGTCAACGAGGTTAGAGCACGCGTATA ?
Reply: 4.7

Ask: What value of measured PBM binding z-score is listed for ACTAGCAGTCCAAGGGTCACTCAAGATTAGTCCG ?
Reply: 3.03

* * *

# Tested on: VDR:RXRa (NR concentration 270 nM, RXRa partner concentration 90 nM)
# ASSAY NAME: PBM binding z-score (relative to random genomic background probes); higher = stronger binding; sequences stand for … in GC…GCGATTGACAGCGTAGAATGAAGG
PROPERTY NAME: PBM binding z-score

Ask: What value of measured PBM binding z-score is listed for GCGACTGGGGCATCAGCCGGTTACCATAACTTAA ?
Reply: -0.669

Ask: What value of measured PBM binding z-score is listed for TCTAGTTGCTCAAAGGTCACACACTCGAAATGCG ?
Reply: 4.77

Ask: What value of measured PBM binding z-score is listed for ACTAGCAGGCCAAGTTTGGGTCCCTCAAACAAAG ?
Reply: -0.796

Ask: What value of measured PBM binding z-score is listed for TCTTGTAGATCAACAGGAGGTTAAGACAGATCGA ?
Reply: 0.563

Ask: What value of measured PBM binding z-score is listed for TAGCCTAGGTCATTCAGGGACCAGTATAGAAAGC ?
Reply: 2.57

* * *

# Test system: PPARg homodimer (NR concentration 180 nM)
# ASSAY NAME: PBM binding z-score (relative to random genomic background probes); higher = stronger binding; sequences stand for … in GC…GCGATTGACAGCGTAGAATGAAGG
PROPERTY NAME: PBM binding z-score
Lab note: write the figure by itself, no unit.

Consider the worked cases shown below.
RESIDUE SEQUENCE | PBM binding z-score
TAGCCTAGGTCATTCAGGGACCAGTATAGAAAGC | 0.904
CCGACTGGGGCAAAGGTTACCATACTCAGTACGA | 1.16
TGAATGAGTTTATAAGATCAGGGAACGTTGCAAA | 0.106
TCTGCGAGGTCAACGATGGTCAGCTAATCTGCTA | 3.27
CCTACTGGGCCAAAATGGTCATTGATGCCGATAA | 0.212
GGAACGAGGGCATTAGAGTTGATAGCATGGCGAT | 0.508
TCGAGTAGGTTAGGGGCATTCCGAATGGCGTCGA | 0.639
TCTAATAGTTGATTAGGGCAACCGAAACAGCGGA | 0.347
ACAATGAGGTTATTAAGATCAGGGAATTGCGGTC | 0.869
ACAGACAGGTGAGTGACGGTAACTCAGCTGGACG | -0.526

Ask: What value of measured PBM binding z-score is listed for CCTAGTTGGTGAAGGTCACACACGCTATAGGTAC ?
Reply: 2.47

Ask: What value of measured PBM binding z-score is listed for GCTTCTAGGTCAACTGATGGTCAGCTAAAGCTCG ?
Reply: 2.01

Ask: What value of measured PBM binding z-score is listed for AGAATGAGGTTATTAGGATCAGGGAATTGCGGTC ?
Reply: 1.24

Ask: What value of measured PBM binding z-score is listed for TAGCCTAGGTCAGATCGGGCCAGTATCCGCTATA ?
Reply: 0.0691

Ask: What value of measured PBM binding z-score is listed for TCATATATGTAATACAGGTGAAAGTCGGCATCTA ?
Reply: 0.745

Ask: What value of measured PBM binding z-score is listed for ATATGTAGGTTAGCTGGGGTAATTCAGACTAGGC ?
Reply: 0.916

Ask: What value of measured PBM binding z-score is listed for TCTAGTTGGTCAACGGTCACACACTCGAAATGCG ?
Reply: 1.48

Ask: What value of measured PBM binding z-score is listed for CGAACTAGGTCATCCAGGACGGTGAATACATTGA ?
Reply: 0.484

* * *

# Test system: LXRa homodimer (NR concentration 270 nM)
# ASSAY NAME: PBM binding z-score (relative to random genomic background probes); higher = stronger binding; sequences stand for … in GC…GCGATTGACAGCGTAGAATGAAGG
# cutoff -0.1 applies to PBM binding z-score; >= gives true (1), < gives false (0)

Example results:
RESIDUE SEQUENCE | ASSIGNED CLASS
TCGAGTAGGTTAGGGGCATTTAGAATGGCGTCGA | false (0)
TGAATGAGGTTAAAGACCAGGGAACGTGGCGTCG | false (0)
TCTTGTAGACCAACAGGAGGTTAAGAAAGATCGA | true (1)
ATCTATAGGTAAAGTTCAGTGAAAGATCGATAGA | true (1)
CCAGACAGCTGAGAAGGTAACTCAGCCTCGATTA | false (0)
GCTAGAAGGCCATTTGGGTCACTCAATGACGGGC | false (0)
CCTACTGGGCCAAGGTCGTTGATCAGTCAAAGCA | false (0)

Ask: hey, is PBM binding z-score for this one >= -0.1? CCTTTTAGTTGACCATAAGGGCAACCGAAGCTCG
Reply: true (1)

* * *

# Tested on: PPARg:RXRa 30nM:10nM, anti-RXR (NR concentration 30 nM, RXRa partner concentration 10 nM)
# ASSAY NAME: PBM binding z-score (relative to random genomic background probes); higher = stronger binding; sequences stand for … in GC…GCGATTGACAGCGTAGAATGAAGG
# cutoff 0.8 applies to PBM binding z-score; >= gives Condition met, < gives Condition not met

RESIDUE SEQUENCE | ASSIGNED CLASS
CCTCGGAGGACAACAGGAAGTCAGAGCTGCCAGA | Condition not met
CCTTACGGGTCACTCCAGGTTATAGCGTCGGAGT | Condition met
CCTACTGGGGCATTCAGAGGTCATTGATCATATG | Condition met
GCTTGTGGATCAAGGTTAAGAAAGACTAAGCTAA | Condition not met
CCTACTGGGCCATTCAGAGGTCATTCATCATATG | Condition not met

Ask: hey, is PBM binding z-score for this one >= 0.8? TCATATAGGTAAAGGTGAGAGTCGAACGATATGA
Reply: Condition met

* * *

# System: VDR homodimer (NR concentration 270 nM)
# ASSAY NAME: PBM binding z-score (relative to random genomic background probes); higher = stronger binding; sequences stand for … in GC…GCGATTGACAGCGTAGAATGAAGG
# cutoff 0.3 applies to PBM binding z-score; >= gives yes, < gives no

Example results:
RESIDUE SEQUENCE | ASSAY SYSTEM | ASSIGNED CLASS
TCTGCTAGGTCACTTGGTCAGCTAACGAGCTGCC | VDR homodimer (NR concentration 270 nM) | no
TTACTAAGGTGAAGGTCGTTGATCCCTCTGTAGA | VDR homodimer (NR concentration 270 nM) | yes
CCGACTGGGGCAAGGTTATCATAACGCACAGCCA | VDR homodimer (NR concentration 270 nM) | no
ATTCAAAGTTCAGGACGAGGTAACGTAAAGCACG | VDR homodimer (NR concentration 270 nM) | yes
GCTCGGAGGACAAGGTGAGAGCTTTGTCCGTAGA | VDR homodimer (NR concentration 270 nM) | no
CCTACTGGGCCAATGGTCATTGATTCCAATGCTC | VDR homodimer (NR concentration 270 nM) | no
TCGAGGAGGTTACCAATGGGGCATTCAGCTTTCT | VDR homodimer (NR concentration 270 nM) | no
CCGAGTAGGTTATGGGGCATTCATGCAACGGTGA | VDR homodimer (NR concentration 270 nM) | no
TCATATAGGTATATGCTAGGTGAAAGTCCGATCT | VDR homodimer (NR concentration 270 nM) | no
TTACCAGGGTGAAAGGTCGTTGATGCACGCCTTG | VDR homodimer (NR concentration 270 nM) | yes

Ask: hey, is PBM binding z-score for this one >= 0.3? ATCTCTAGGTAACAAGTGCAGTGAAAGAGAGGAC
Reply: yes

Ask: hey, is PBM binding z-score for this one >= 0.3? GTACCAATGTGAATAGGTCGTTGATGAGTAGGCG
Reply: no

Ask: hey, is PBM binding z-score for this one >= 0.3? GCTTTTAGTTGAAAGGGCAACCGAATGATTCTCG
Reply: no

Ask: hey, is PBM binding z-score for this one >= 0.3? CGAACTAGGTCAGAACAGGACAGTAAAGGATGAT
Reply: yes

Ask: hey, is PBM binding z-score for this one >= 0.3? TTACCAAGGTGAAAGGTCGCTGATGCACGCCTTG
Reply: yes

Ask: hey, is PBM binding z-score for this one >= 0.3? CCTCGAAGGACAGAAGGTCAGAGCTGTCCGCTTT
Reply: no

Ask: hey, is PBM binding z-score for this one >= 0.3? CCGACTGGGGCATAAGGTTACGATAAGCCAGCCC
Reply: no

Ask: hey, is PBM binding z-score for this one >= 0.3? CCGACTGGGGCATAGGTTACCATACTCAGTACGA
Reply: no

Ask: hey, is PBM binding z-score for this one >= 0.3? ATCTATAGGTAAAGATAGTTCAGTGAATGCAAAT
Reply: yes

Ask: hey, is PBM binding z-score for this one >= 0.3? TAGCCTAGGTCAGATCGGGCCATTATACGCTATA
Reply: no
